- Tested on: U2OS
- Measurement description: Multiplex assay against U2OS
- Format: toxicity, cell-based
- Condition parameters: human, 24 h, 10 µM, compound concentration 10 uM, replicate 2
Experimental readout: Population Hoechst High Intensity Objects (%)
Provide the reading as a plain figure in %.

[[record]]
compound = "Cc1c(-c2ccc(O)cc2)n(Cc2ccc(OCCN3CCCCCC3)cc2)c2ccc(O)cc12 [BAZEDOXIFENE]"
recorded_result = 20

[[record]]
compound = "COc1ncc(-c2ccc3nccc(-c4ccnnc4)c3c2)cc1NS(=O)(=O)c1ccc(F)cc1F [OMIPALISIB]"
recorded_result = 11

[[record]]
compound = "C=CC(=O)Nc1cccc(C(=O)Nc2ccc(Nc3cc(-c4[nH]c(SC)nc4C)ccn3)cc2)c1"
recorded_result = 11

[[record]]
compound = "CN1CCC[C@@H]1CCO[C@](C)(c1ccccc1)c1ccc(Cl)cc1.O=C(O)/C=C/C(=O)O [CLEMASTINE FUMARATE]"
recorded_result = 12


Sample `Cc1cc(C)cc(-c2cnc3cc(Cl)c(-c4cccc(O)c4)cc3c2OCCCN)c1` ; Population Hoechst High Intensity Objects (%) observed: 7

Sample CN1CCCC(n2nc(Cc3ccc(Cl)cc3)c3ccccc3c2=O)CC1.Cl (configuration not stated) [AZELASTINE HYDROCHLORIDE] ; Population Hoechst High Intensity Objects (%) observed: 4

Sample Cc1nc(Nc2n[nH]c3c2CN(C(=O)N[C@H](CN(C)C)c2ccccc2)C3(C)C)c2sccc2n1 [PF-03758309] ; Population Hoechst High Intensity Objects (%) observed: 25

Sample c1cn2cc(-c3ccc4cn[nH]c4c3)nc(Nc3ccc(N4CCOCC4)cc3)c2n1 [ENTOSPLETINIB] ; Population Hoechst High Intensity Objects (%) observed: 26

Sample `Cc1csc2c(N[C@@H](C)CN3CCN(S(=O)(=O)c4ccc(Cl)c(Cl)c4)CC3)ncnc12` ; Population Hoechst High Intensity Objects (%) observed: 4

Sample O=C1NCN(c2ccccc2)C12CCN(CCCOc1ccc(F)cc1)CC2 [SPIRAMIDE] ; Population Hoechst High Intensity Objects (%) observed: 6

Sample CN(C)CC#Cc1ccc(OCCCc2sc(N3CCc4cccc(C(=O)Nc5nc6ccccc6s5)c4C3)nc2C(=O)O)c(F)c1 [A-1155463] ; Population Hoechst High Intensity Objects (%) observed: 10

Sample CC(C)NCC(O)COc1ccc(CCOCC2CC2)cc1.Cl (configuration not stated) [BETAXOLOL HYDROCHLORIDE] ; Population Hoechst High Intensity Objects (%) observed: 5

Sample `OC1(c2ccc(Cl)cc2)CCN(Cc2c[nH]c3ccccc23)CC1` ; Population Hoechst High Intensity Objects (%) observed: 5

Sample CC[C@H](C)C(=O)O[C@H]1C[C@@H](C)C=C2C=C[C@H](C)[C@H](CC[C@@H]3C[C@@H](O)CC(=O)O3)[C@H]21 [LOVASTATIN] ; Population Hoechst High Intensity Objects (%) observed: 7

Sample `COc1cc(-n2cnc3cc(-c4ccc(Cl)cc4)sc3c2=O)ccc1OCCN1CCCC1` ; Population Hoechst High Intensity Objects (%) observed: 14

Sample Cn1cncc1[C@@](O)(COc1ccc(C#N)cc1-c1ccc(OC(F)(F)F)cc1)c1ccc(C#N)cc1 [A-108] ; Population Hoechst High Intensity Objects (%) observed: 7

Sample C[C@@H](NCCCc1cccc(C(F)(F)F)c1)c1cccc2ccccc12.Cl [CINACALCET HYDROCHLORIDE] ; Population Hoechst High Intensity Objects (%) observed: 24

Hello, the source for this data is ChEMBL document CHEMBL4689842, in case you need it.
